Origin of values: PubChem BioAssay

Listing of entries alongside the reported differentiation response.
- method-description: AML differentiation inducers, ER-HoxA9 marrow cells – cell-based, GFP/MAC1 double positive, flow cytometry, validation set, primary screen (AID 588685);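 also: compound exposure lasts four days before antibody staining and flow analysis; 0% = DMSO wells and 100% = 5 µM fulvestrant positive control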
- experimental-parameters: active compounds read high, normalized: vehicle 0, fulvestrant 100

compound | quantity-unit | differentiation response
CC1(C)CC(NC(=O)C23CCC(C)(C(=O)C2=O)C3(C)C)CC(C)(C)N1 (configuration not stated) | % | 12
CC1(C)CC(=O)c2cn3c(nc2C1)nc1ccccc13 | % | -6.03
CC1CC(OC(=O)C(O)c2ccccc2)CC(C)(C)N1C (configuration not stated) | % | -18.4
CSc1ccc(/C=N/N2CCN(Cc3ccc(C)cc3C)CC2)cc1 | % | 11.5
O=C(CCc1c[nH]c2ccccc12)NCc1ccco1 | % | 0.92
NC(N)=N/N=C/c1c(Cl)cccc1Cl | % | -13.3
CCOC(=O)c1ncn2c1CN(C)C(=O)c1cc(F)ccc1-2 | % | 7.13
C/C(=N\NC(=O)C1(C)CC1(Br)Br)c1ccc([N+](=O)[O-])cc1 (configuration not stated) | % | 13.9
COc1ccc2cc([C@H](C)C(=O)O)ccc2c1 | % | -12
COc1ccc(-c2nnc(-c3cc4c(ccc5ccccc54)oc3=O)o2)cc1 | % | -0.8
CC(=O)N1CCN(c2ccc(NC(=O)/C=C/c3ccccc3)cc2)CC1 | % | -11.9
Cc1ccc2[nH]c(=O)c(Cc3ccccc3)c(O)c2c1 | % | -8.55
CCCC(=O)O[C@]1(C(=O)CCl)[C@@H](C)C[C@H]2[C@@H]3CCC4=CC(=O)C=C[C@]4(C)[C@@]3(F)C(=O)C[C@@]21C | % | 0
Cc1ccc2[nH]c3c(c2c1)CCNC3=O | % | -6.66
CCC(C(=O)OCCN(CC)CC)c1ccccc1 (configuration not stated) | % | 14.9
CCc1cc2c(=O)c(-c3ccc4c(c3)OCCO4)coc2c(CN2CCCCC2C)c1O (configuration not stated) | % | 15.7
COc1ccc(OC)c(S(=O)(=O)N2CCCc3ccccc32)c1 | % | -8.96
COC(=O)C1=C(C)NC(C)=C(C(=O)OCCN(C)Cc2ccccc2)C1c1cccc([N+](=O)[O-])c1 (configuration not stated) | % | -1.65
Cc1ccccc1C(=O)Nc1ccccc1C(=O)NCC(C)C | % | 2.89
COc1ccc2c(c1OC)C(C1c3c(cc4c(c3OC)OCO4)CCN1C)OC2=O (configuration not stated) | % | -2.69
CCn1c(SCC(=O)c2ccccc2)nc2ccccc2c1=O | % | -14.8
CCC(C(=O)Nc1ccc2c(c1)OCCO2)c1ccccc1 (configuration not stated) | % | -10.4
COc1ccc(-c2c[n+](CC(=O)OC3CC(C)CCC3C(C)C)c3n2CCC3)cc1 (configuration not stated) | % | -3.11
COc1ccc(C(=O)N2c3cc4c(cc3C(C)=CC2(C)C)OCO4)cc1 | % | -1.71
O=C(CN1C(=O)/C(=C/c2cccc(Br)c2)SC1=S)Nc1cccnc1 | % | 2.74
O=C1CCc2cc(OCCCCc3nnnn3C3CCCCC3)ccc2N1 | % | 8.19
CCCCN(CCCC)CCCOC(=O)c1ccc(N)cc1 | % | 1.64
O=C(Oc1ccccc1)Oc1ccc2c(c1)oc(=O)c1ccccc12 | % | 8.19
Cc1ccc(S(=O)(=O)N2CCC(C(=O)N[C@@H](C)C(=O)NC3CCS(=O)(=O)C3)CC2)cc1 (some centres not stated) | % | -13.3
COc1ccccc1OCC(O)COC(N)=O (configuration not stated) | % | 3.28
FC(F)(F)c1ccc(-c2noc(CN3CCCN(C4CCCCC4)CC3)n2)cc1 | % | 33.5
CCOC(=O)[C@H]1O[C@@H]1C(=O)N[C@@H](CC(C)C)C(=O)NCCC(C)C | % | 0.82
O=C(NCCC(c1ccccc1)c1ccco1)c1cccs1 (configuration not stated) | % | -5.6
NC(CO)C(=O)NNCc1ccc(O)c(O)c1O (configuration not stated) | % | -8.96
Cc1cccc(C(=O)c2cccc(C)c2)c1 | % | -7.57
CN1C(=O)NC(c2ccc(O)cc2)C2=C1CN(c1cccc3ccccc13)C2=O (configuration not stated) | % | 7.09
CN(C)[C@@H]1C(=O)C(C(=O)NCN2CCCC2)=C(O)[C@@]2(O)C(=O)C3=C(O)c4c(O)cccc4[C@@](C)(O)C3CC12 (some centres not stated) | % | 19.6
COc1ccc(CCNc2ncnc3c2[nH]c2cc(OC)c(OC)cc23)cc1OC | % | -0.82
C[C@H]1O[C@@H](O[C@H]2[C@@H](O)C[C@H](O[C@H]3[C@@H](O)C[C@H](O[C@H]4CC[C@@]5(C)[C@H](CC[C@@H]6[C@@H]5C[C@@H](O)[C@]5(C)[C@@H](C7=CC(=O)OC7)CC[C@]65O)C4)O[C@@H]3C)O[C@@H]2C)C[C@H](O)[C@@H]1O | % | 5.67
C=CCC1(O)C(=O)N2C(=C1C(=O)N1CCOCC1)c1ccccc1CC2(C)C (configuration not stated) | % | 0.24
CC(C)(C)C(=O)NC(=S)NNC(=O)c1ccncc1 | % | -7.94
COc1cc(/C=C/C(=O)CC(=O)/C=C/c2ccc(O)c(OC)c2)ccc1O | % | 18.8
